Every entry's value here was drawn from the kinase profiling compilation of Christmann-Franck et al. (2016).

- system-tested: PAK7 (human) (UniProt Q9P286)
- Sequence (Q9P286 whole entry, looked up): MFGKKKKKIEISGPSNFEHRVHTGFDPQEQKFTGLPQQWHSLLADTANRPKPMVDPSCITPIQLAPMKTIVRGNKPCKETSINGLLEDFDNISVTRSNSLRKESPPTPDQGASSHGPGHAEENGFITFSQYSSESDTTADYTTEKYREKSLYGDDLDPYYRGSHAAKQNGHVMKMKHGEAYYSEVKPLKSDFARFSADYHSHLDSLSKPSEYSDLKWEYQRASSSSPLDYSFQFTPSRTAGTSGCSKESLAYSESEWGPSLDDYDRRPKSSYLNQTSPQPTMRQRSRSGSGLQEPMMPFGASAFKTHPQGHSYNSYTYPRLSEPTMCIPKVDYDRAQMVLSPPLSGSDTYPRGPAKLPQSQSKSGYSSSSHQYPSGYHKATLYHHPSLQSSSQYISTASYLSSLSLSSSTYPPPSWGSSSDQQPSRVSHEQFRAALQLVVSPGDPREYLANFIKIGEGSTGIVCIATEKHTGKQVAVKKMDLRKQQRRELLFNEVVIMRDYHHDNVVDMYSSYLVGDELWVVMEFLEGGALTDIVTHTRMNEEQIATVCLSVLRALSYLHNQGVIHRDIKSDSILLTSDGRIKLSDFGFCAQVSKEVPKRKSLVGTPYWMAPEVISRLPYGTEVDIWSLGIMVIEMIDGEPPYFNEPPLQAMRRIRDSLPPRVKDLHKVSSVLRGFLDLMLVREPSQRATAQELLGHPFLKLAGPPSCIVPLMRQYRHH
- protocol-notes: radiometric filter-binding kinase assay, Kinase HotSpot
- details: compound 0.5 µM; ATP 10 µM
Lab note - cut at 90% for residual activity: 1 (yes) if strictly below, 0 (no) if not.

Some solved entries appear below for comparison.
# smi, system-tested, assigned-category
data = [
    ("Oc1cccc(-c2nc(N3CCOCC3)c3oc4ncccc4c3n2)c1", "PAK7 (human) (UniProt Q9P286)", "0 (no)"),
    ("CCOC(=O)c1c(C)[nH]c(/C=C2\\C(=O)Nc3ccccc32)c1C", "PAK7 (human) (UniProt Q9P286)", "1 (yes)"),
]

Request: API: query returns whether the molecule falls strictly under 90% in residual activity. Query: `COc1ccc2c(c[n+](C)c3c4cc5c(cc4ccc23)OCO5)c1OC`
Result: 1 (yes)

Request: // same read-out, input: `Nc1ccc2ncnc(NCCc3ccc(Oc4ccccc4)cc3)c2c1`
Result: 0 (no)

Request: // same read-out, input: `CCN(CC)C(=O)c1ccc(Nc2nc(OCC3CCCCC3)c3nc[nH]c3n2)cc1`
Result: 1 (yes)

Request: // same read-out, input: `Cc1ccc(S(=O)(=O)/C=C/C#N)cc1`
Result: 0 (no)

Request: // same read-out, input: `Nc1ncnc2[nH]nc(Nc3ccc(F)cc3)c12`
Result: 0 (no)

Request: // same read-out, input: `c1ccc(-c2n[nH]c3c2oc2ccccc23)cc1`
Result: 1 (yes)

Request: // same read-out, input: `O=C1NC(=O)/C(=C/c2ccc3c(c2)OC(F)(F)O3)S1`
Result: 0 (no)

###

- system-tested: CHEK2 (human) (UniProt O96017)
- Sequence (O96017 whole entry, looked up): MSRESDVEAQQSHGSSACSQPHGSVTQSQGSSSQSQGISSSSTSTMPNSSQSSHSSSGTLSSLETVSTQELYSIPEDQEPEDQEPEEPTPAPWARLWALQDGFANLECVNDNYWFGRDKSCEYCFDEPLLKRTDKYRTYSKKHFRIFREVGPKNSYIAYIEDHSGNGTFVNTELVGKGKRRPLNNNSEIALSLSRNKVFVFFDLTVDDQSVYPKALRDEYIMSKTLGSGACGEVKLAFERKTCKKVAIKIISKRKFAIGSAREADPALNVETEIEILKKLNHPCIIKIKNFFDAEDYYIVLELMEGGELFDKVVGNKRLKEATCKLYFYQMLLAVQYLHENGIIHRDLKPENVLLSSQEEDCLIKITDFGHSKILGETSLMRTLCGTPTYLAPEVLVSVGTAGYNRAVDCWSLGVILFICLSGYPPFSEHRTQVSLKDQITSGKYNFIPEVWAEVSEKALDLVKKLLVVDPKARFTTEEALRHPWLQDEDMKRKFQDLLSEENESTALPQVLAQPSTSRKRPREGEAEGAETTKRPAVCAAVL
- protocol-notes: radiometric filter-binding kinase assay, Kinase HotSpot
- details: compound 0.5 µM; ATP 10 µM
Each entry below carries its recorded residual activity.
// note: answer is a bare numeric in %

# compound, residual activity (%)
records = [
    ("Nc1ccc2ncnc(NCCc3ccc(Oc4ccccc4)cc3)c2c1", 91.7),
]

Request: Entry `O=S(=O)(c1cccc2cnccc12)N1CCCNCC1` has what residual activity?
Result: 98.9

Request: // same read-out, input: `CNC(=O)c1cc(Oc2ccc(NC(=O)Nc3ccc(Cl)c(C(F)(F)F)c3)cc2)ccn1`
Result: 102

Request: // same read-out, input: `CC(C)N(CCC(=O)c1ccc2ccccc2c1)Cc1ccccc1`
Result: 87.5

Request: // same read-out, input: `COc1ccc2c(c[n+](C)c3c4cc5c(cc4ccc23)OCO5)c1OC`
Result: 96.5

Request: // same read-out, input: `Nc1ncnc2c1c(-c1ccc(Oc3ccccc3)cc1)cn2C1CCCC1`
Result: 76.6

Request: // same read-out, input: `Cc1ccc(S(=O)(=O)/C=C/C#N)cc1`
Result: 107

Request: // same read-out, input: `N#CC(C#N)=C(N)/C(C#N)=C/c1ccc(O)cc1`
Result: 95.5

Request: // same read-out, input: `c1ccc(-c2n[nH]cc2-c2ccnc3ccccc23)nc1`
Result: 96.6

###

- system-tested: WNK3 (human)
- protocol-notes: radiometric filter-binding kinase assay, Kinase HotSpot
- details: compound 0.5 µM; ATP 10 µM
Each entry below carries its recorded residual activity.
// note: answer is a bare numeric in %

Observe how each entry below is paired with its result.
# smi, residual activity / %
records = [
    ("O=C(Nc1cccc(Nc2nccc(Nc3cccc(C(F)(F)F)c3)n2)c1)C1CC1", 105),
    ("CCC(=O)Nc1ccc2ncnc(Nc3cccc(Br)c3)c2c1", 99.3),
    ("Cc1ccc(Nc2nccc(N(C)c3ccc4c(C)n(C)nc4c3)n2)cc1S(N)(=O)=O", 98.6),
]

Request: Entry `O=C1NC(=O)/C(=C/c2ccc3c(c2)OC(F)(F)O3)S1` has what residual activity?
Result: 91.5

Request: // same read-out, input: `c1ccc(-c2n[nH]c3c2oc2ccccc23)cc1`
Result: 91.5

Request: // same read-out, input: `CCCC(=O)Oc1ccc2[nH]c(C(=O)c3cc4ccccc4[nH]3)cc2c1`
Result: 101

Request: // same read-out, input: `Oc1cccc(-c2nc(N3CCOCC3)c3oc4ncccc4c3n2)c1`
Result: 93.9

###

Each entry below carries its recorded residual activity.
- system-tested: CSNK1G2 (human)
- protocol-notes: radiometric filter-binding kinase assay, Kinase HotSpot
- details: compound 0.5 µM; ATP 10 µM
// note: answer is a bare numeric in %

Observe how each entry below is paired with its result.
# smi, system-tested, unit-text, residual activity
measured = [
    ("Cc1ccc(S(=O)(=O)/C=C/C#N)cc1", "CSNK1G2 (human)", "%", 98.6),
    ("O=C(Nc1cccc(Nc2nccc(Nc3cccc(C(F)(F)F)c3)n2)c1)C1CC1", "CSNK1G2 (human)", "%", 101),
]

Next item in the queue.
Request: Entry `CNC(=O)c1cc(Oc2ccc(NC(=O)Nc3ccc(Cl)c(C(F)(F)F)c3)cc2)ccn1` has what residual activity?
Result: 88.9

###

Each entry below carries its recorded residual activity.
- system-tested: CAMK2D (human) (UniProt Q13557)
- Sequence (Q13557 whole entry, looked up): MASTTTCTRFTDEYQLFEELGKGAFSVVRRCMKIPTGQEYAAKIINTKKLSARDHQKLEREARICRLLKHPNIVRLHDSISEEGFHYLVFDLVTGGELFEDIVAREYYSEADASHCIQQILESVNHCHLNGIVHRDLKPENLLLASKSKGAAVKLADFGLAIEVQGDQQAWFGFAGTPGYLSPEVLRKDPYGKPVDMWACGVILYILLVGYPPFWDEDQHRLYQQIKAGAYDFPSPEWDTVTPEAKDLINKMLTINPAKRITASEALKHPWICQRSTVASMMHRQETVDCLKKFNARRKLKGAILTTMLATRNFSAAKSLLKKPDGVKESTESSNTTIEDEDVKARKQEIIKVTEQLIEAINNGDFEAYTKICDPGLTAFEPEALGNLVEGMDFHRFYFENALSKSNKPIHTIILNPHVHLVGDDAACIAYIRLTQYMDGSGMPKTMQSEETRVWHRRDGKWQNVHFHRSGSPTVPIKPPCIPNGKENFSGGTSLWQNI
- protocol-notes: radiometric filter-binding kinase assay, Kinase HotSpot
- details: compound 0.5 µM; ATP 10 µM
// note: answer is a bare numeric in %

Request: Entry `COc1cc2ncnc(Nc3cccc(Cl)c3)c2cc1OC` has what residual activity?
Result: 96.1

###

- system-tested: FER (human) (UniProt P16591)
- Sequence (P16591 whole entry, looked up): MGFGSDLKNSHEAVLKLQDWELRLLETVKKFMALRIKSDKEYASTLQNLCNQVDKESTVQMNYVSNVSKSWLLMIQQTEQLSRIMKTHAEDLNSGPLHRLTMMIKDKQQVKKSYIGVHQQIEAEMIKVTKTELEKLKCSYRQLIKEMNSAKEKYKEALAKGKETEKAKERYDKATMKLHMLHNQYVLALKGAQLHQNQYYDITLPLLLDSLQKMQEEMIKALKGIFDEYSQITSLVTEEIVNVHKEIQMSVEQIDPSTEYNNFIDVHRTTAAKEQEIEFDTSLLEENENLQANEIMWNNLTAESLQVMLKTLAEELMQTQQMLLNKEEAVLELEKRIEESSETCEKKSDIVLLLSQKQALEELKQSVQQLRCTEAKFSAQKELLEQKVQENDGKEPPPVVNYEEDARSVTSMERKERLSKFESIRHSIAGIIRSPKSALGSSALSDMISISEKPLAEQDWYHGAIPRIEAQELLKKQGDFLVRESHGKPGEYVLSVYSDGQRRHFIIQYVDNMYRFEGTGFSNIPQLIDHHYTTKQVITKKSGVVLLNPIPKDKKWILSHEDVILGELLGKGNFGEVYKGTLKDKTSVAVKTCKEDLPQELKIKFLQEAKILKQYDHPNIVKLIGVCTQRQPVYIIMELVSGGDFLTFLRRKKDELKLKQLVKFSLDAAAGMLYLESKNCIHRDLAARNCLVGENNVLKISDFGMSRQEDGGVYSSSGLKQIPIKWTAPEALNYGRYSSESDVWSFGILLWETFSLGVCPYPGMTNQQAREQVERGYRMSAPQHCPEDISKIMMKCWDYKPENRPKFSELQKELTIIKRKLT
- protocol-notes: radiometric filter-binding kinase assay, Kinase HotSpot
- details: compound 0.5 µM; ATP 10 µM
observable: residual activity (%)
// note: answer is a bare numeric in %

# molecule, system-tested, unit-text, residual activity
rows = [
    ("O=C1NC(=O)C(c2cn(CCCn3ccnc3)c3ccccc23)=C1Nc1ccccc1", "FER (human) (UniProt P16591)", "%", 56.1),
    ("Nc1ncnc2c1c(-c1ccc(Oc3ccccc3)cc1)cn2C1CCCC1", "FER (human) (UniProt P16591)", "%", 88.1),
    ("CCCC(=O)Oc1ccc2[nH]c(C(=O)c3cc4ccccc4[nH]3)cc2c1", "FER (human) (UniProt P16591)", "%", 101),
]

Request: GET /values?readout=residual activity&system=FER (human) (UniProt P16591)&item= `O=C1NC(=O)c2c1c1c3ccccc3n3c1c1c2c2ccccc2n1C1CCC3O1`
Result: 5.39

Request: // same read-out, input: `c1ccc(-c2n[nH]c3c2oc2ccccc23)cc1`
Result: 103

Request: // same read-out, input: `N#C/C(=C(/N)Sc1ccc(N)cc1)c1ccccc1C(F)(F)F`
Result: 105

Request: // same read-out, input: `Cc1ccc(NC2=CC(=O)c3sc(C)nc3C2=O)cc1`
Result: 83.9

Request: // same read-out, input: `CCN(CC)CCNC(=O)c1c(C)[nH]c(/C=C2\C(=O)Nc3ccc(F)cc32)c1C`
Result: 31.6

###

Each entry below carries its recorded residual activity.
- system-tested: PKN2 (human)
- protocol-notes: radiometric filter-binding kinase assay, Kinase HotSpot
- details: compound 0.5 µM; ATP 10 µM
// note: answer is a bare numeric in %

Observe how each entry below is paired with its result.
# smi, experimental-result
rows = [
    ("Cc1ccc(NC2=CC(=O)c3sc(C)nc3C2=O)cc1", 115),
    ("O=C1NC(=O)C(c2cn(CCCn3ccnc3)c3ccccc23)=C1Nc1ccccc1", 76.9),
    ("CCN(CC)C(=O)c1ccc(Nc2nc(OCC3CCCCC3)c3nc[nH]c3n2)cc1", 91.8),
]

Request: GET /values?readout=residual activity&system=PKN2 (human)&item= `O=c1cc(N2CCOCC2)oc2c1ccc1ccccc12`
Result: 93.2

Request: // same read-out, input: `CNc1cc2c(Nc3cccc(Br)c3)ncnc2cn1`
Result: 102

Request: // same read-out, input: `Nc1cccc(-c2cc3c(Oc4cccc(O)c4)ncnc3[nH]2)c1`
Result: 72

###

Each entry below carries its recorded residual activity.
- system-tested: INSR (human) (UniProt P06213)
- Sequence (P06213 whole entry, looked up): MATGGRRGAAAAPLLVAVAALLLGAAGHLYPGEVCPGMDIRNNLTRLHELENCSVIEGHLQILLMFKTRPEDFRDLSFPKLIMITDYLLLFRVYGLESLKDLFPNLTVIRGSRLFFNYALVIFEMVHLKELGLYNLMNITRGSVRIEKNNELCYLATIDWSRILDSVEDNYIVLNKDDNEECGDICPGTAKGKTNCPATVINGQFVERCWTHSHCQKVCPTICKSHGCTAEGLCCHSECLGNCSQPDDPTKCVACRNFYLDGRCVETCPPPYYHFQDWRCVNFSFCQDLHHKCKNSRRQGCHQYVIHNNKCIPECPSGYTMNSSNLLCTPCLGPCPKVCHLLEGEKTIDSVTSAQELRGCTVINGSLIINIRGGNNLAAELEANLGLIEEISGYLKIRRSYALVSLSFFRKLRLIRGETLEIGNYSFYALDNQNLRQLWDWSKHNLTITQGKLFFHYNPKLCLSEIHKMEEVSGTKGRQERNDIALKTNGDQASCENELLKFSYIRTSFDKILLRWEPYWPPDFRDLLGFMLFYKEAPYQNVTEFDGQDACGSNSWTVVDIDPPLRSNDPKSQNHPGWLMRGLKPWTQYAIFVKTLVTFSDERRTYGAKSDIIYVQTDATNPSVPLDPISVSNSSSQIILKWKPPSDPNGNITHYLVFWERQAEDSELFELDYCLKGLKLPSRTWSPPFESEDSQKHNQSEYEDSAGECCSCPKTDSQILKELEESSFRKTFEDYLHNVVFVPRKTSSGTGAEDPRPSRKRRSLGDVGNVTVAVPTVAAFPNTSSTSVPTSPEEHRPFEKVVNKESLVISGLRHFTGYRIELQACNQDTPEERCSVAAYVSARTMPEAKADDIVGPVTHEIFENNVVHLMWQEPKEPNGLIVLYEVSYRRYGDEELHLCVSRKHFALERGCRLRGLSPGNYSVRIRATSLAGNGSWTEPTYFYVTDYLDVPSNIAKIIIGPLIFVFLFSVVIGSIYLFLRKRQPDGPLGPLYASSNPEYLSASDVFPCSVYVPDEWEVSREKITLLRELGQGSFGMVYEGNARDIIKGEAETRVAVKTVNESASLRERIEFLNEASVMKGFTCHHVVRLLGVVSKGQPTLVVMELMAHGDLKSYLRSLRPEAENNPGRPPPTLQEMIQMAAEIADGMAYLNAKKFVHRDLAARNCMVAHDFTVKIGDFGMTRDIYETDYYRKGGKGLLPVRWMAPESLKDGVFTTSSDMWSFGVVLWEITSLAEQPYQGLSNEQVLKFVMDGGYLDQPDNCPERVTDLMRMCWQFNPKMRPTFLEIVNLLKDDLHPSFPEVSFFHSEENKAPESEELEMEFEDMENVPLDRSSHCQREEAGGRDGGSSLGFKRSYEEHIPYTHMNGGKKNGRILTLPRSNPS
- protocol-notes: radiometric filter-binding kinase assay, Kinase HotSpot
- details: compound 0.5 µM; ATP 10 µM
// note: answer is a bare numeric in %

Observe how each entry below is paired with its result.
# smi, unit-text, residual activity
data = [
    ("c1ccc(-c2n[nH]c3c2oc2ccccc23)cc1", "%", 94.4),
    ("Nc1ncnc2[nH]nc(Nc3ccc(F)cc3)c12", "%", 98.5),
]

Next item in the queue.
Request: Entry `O=S(=O)(c1cccc2cnccc12)N1CCCNCC1` has what residual activity?
Result: 95

###

- system-tested: TGFBR2 (human) (UniProt P37173)
- Sequence (P37173 whole entry, looked up): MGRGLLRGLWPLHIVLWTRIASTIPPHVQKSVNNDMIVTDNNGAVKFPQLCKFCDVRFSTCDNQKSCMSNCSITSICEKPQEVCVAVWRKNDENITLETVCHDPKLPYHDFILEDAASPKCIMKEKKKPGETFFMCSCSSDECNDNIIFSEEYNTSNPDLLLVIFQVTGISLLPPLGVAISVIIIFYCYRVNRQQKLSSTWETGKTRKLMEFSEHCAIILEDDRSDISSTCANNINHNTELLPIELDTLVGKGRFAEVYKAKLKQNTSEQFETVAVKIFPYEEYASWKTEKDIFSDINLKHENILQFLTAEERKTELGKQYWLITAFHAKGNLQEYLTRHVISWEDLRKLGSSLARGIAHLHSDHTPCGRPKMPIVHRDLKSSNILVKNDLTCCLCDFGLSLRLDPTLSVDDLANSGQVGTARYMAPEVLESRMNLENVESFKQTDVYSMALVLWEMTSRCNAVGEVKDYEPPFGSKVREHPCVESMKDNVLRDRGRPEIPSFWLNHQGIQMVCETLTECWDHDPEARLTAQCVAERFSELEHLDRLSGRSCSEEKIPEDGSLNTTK
- protocol-notes: radiometric filter-binding kinase assay, Kinase HotSpot
- details: compound 0.5 µM; ATP 10 µM
observable: residual activity
Respond with a number, then the unit of measure.

# compound, residual activity
measured = [
    ("O=S(=O)(c1cccc2cnccc12)N1CCCNCC1", "97%"),
    ("Nc1cccc(-c2cc3c(Oc4cccc(O)c4)ncnc3[nH]2)c1", "42.6%"),
    ("CC#CC(=O)Nc1cc2c(Nc3ccc(F)c(Cl)c3)ncnc2cn1", "123%"),
    ("CCC(=O)Nc1ccc2ncnc(Nc3cccc(Br)c3)c2c1", "116%"),
    ("c1ccc(-c2n[nH]c3c2oc2ccccc23)cc1", "94.1%"),
    ("CO[C@H]1CC2CC[C@@H](C)[C@@](O)(O2)C(=O)C(=O)N2CCCC[C@H]2C(=O)OC([C@H](C)C[C@@H]2CC[C@@H](O)[C@H](OC)C2)CC(=O)[C@H](C)/C=C(\\C)[C@@H](O)[C@@H](OC)C(=O)[C@H](C)C[C@H](C)/C=C/C=C/C=C/1C (some centres undefined)", "136%"),
    ("Nc1ncnc2c1c(-c1ccc(Oc3ccccc3)cc1)cn2C1CCCC1", "166%"),
    ("CNc1cc2c(Nc3cccc(Br)c3)ncnc2cn1", "105%"),
]

Next item in the queue.
Request: Entry `Oc1cccc(-c2nc(N3CCOCC3)c3oc4ncccc4c3n2)c1` has what residual activity?
Result: 102%
